TEST SYSTEM: iNOS (Mus musculus, UniProt P29477)
Construct: endogenous in cells; host or cells: RAW 264.7 cells induced with LPS
Sequence (P29477 whole entry): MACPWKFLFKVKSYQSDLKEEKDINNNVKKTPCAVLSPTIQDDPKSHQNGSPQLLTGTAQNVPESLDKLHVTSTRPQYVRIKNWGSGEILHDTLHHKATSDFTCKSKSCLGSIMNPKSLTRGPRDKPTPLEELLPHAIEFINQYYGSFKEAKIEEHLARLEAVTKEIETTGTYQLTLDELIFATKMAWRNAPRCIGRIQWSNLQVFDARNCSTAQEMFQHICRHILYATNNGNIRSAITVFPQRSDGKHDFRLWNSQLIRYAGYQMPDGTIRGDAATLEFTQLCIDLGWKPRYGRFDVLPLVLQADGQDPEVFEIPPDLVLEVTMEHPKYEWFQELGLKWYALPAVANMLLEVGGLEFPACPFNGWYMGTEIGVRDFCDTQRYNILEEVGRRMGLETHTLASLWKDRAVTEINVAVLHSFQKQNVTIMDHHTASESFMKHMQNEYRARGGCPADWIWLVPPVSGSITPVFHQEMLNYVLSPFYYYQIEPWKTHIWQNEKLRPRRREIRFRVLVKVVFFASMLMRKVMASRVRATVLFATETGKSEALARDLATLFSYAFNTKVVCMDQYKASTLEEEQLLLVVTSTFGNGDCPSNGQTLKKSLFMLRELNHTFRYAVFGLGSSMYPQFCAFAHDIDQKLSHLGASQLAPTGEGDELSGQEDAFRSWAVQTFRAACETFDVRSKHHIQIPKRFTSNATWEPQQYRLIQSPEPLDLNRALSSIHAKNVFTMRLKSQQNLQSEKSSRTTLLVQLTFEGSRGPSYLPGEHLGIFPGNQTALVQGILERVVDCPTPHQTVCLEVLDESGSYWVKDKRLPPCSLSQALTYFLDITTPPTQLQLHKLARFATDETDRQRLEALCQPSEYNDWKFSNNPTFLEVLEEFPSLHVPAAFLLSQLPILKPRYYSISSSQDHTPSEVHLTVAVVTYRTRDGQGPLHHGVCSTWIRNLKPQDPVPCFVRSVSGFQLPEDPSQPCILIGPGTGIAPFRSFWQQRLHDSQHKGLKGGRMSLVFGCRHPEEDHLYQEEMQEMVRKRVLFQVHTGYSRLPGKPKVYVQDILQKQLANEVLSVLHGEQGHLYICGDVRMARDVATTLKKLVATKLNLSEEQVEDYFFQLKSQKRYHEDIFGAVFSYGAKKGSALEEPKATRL
ASSAY NOTES: iNOS enzymatic activity in LPS-induced RAW 264.7 cells
Assay type: cell-based
Assignment: determine reported pIC50 for the given compounds.
Quick note: pIC50 values are minus log10 of concentrations in mol/L.

Which measured pIC50 belongs to COc1ccc2c(c1)c(CC(=O)O)c(C)n2C(=O)c1ccc(Cl)cc1 [Indomethacin, reference compound] , tested on iNOS (Mus musculus, UniProt P29477)?
4.61

Query for iNOS (Mus musculus, UniProt P29477): what pIC50 does the record show for COc1ccc(C(=O)/C=C/c2ccc(OCC(=O)O/N=C(\N)c3ccc(OC)c(OC)c3)cc2)cc1 ?
5.72

Short answer please: pIC50, iNOS (Mus musculus, UniProt P29477), entry COc1ccc(C(=O)/C=C/c2ccc(OCC(=O)O/N=C(\N)c3ccccc3)cc2)cc1
5.20

Reference source: paper PMC8158245
